ASSAY METHOD TEXT: yeast display, Sf9 membrane polyspecificity reagent, FACS + sequencing; frameworks hold sequencing errors
PROPERTY NAME: polyreactivity (PSR sort gate)

ORDERED RESIDUES	polyreactivity (PSR sort gate)
QVQLVESGGGLLQAGGSHRLSCAASGILVYNAMGWYTQAPGKERELVAAISARGGRTYYADSVKGRFTISRDNAKNTVYLQMNSLKPEDSAVYYCATLETTGVNYWGQGTQVTVSS	high polyreactivity
QVQLVESGGGIVQAGGSLRLSCAASGGIFFIYTMGWYRQAPGKERELVAAITSTGDTNYADSVKGRFTISRDNAKNTVYLQMNSLKPEDTAVYYCNKDYGTRGKGYDYWGQGTQVTVSS	low polyreactivity
QVQLVESGGGLVQAGGSLRLSCASSGSIFTRYAMGWYRQAPGKERELVAAISRRGGSTYYADSVKGRFTISRDNAKNTVYIQMNSLKPEDTAVYYCYPYYIASTFDYWGQGTQVTVSS	high polyreactivity
QVQLVESGGGLVQAGGSLRLSCAASGSTFYSYAMGWYRQAPGKERELVAAISWDGGRTYYADSVKGRFTISRDNAKNTVYLQMNSLKPEDTAVYYCSADYPTYRHYYWGQGTQVTVSS	low polyreactivity

(Q) State its polyreactivity (PSR sort gate) for this sequence: QVQLVESGGGLVQAGGSLRLSCAASGSIFYSNVMGWYRQAPGKERELVAAIRYSGVGTYYADSVKGRFTISRDNAKNTVYLLMNSLKPEDTAVYYCNAVTKVGYLRRRDYWGQGTKVTVSS
(A) low polyreactivity

(Q) State its polyreactivity (PSR sort gate) for this sequence: QVQLVESGGGLVQAGGSLRLSCAASGFIFWYYAMGWYRQAPGKERELVAAITSRGGSTYYADSVKGRFTISSDNAKNTDYLQMNSLKPEDTAVYYCAAKFPSRFYSFVQYYYWGQGTQVTVSS
(A) high polyreactivity

(Q) State its polyreactivity (PSR sort gate) for this sequence: QVQLVESGGGLVQAGGSLRLSCAASGRTFASNAMGWSRQAPGKERELVAAISVTGGRTYYADSVKGRFTISRDNAKNTVYLLMNSLKPEDTAVYYCAKVTKLDPYSYDYWGQGTQVTVSS
(A) low polyreactivity

(Q) State its polyreactivity (PSR sort gate) for this sequence: QVQLVESGGGLVQAGGSLRLSCAASGLTFPYYAMGWYRQAPGKERELVAGISDSGDSTYYADSVKGRFTISRDNAKNTVYLQMNSLKPEDTAVYYCNAYFRYSYDYWGQGTQVTVSS
(A) high polyreactivity

From: the nanobody polyreactivity screen of Harvey et al. (2022)
